Target: GABA-A receptor; alpha-1/beta-3/gamma-2 (Homo sapiens, UniProt P14867+P18507+P28472)
Sequence (P14867 whole entry): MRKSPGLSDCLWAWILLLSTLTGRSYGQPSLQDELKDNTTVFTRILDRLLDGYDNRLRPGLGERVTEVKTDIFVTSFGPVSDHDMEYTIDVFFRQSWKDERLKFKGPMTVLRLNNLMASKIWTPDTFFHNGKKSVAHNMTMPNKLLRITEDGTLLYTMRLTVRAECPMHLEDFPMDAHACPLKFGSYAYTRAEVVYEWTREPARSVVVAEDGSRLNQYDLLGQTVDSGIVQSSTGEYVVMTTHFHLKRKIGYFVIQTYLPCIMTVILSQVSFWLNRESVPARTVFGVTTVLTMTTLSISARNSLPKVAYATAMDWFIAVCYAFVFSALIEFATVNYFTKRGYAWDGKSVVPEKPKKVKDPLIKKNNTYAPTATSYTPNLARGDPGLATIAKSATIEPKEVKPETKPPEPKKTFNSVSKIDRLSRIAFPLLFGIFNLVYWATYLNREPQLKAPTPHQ
Sequence (P18507 whole entry): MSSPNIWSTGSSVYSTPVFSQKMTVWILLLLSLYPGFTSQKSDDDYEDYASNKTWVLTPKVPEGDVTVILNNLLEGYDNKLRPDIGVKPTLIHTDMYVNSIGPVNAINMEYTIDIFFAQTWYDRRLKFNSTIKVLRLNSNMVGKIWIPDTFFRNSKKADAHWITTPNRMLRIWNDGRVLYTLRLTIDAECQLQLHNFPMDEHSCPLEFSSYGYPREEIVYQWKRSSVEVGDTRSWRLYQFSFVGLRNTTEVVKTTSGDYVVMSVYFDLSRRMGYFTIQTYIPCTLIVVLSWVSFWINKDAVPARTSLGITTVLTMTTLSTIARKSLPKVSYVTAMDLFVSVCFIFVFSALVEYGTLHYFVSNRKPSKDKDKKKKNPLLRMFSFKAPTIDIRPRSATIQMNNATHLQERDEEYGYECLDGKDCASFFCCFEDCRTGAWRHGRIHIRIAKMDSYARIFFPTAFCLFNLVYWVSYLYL
Sequence (P28472 whole entry): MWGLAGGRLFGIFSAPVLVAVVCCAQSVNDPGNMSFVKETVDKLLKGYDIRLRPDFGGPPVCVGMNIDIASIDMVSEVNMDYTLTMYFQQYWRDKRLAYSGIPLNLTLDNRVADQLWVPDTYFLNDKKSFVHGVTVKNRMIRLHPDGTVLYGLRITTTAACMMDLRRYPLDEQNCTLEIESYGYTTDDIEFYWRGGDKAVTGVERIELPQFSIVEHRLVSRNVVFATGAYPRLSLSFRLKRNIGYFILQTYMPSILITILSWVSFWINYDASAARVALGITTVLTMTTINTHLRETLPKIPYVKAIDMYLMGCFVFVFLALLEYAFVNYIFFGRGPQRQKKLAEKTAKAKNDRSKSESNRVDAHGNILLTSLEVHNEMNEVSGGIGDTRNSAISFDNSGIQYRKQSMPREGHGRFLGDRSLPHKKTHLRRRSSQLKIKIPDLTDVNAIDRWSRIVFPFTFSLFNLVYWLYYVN
Experiment: Displacement of [3H]- Ro 15-1788 binding from human GABA-A receptor alpha-1-beta-3-gamma-2 subunits
Rule: Ki below 40 nM gives TRUE. Equal to or above 40 nM gives FALSE.

test_smiles=CC1(C)CC(=O)c2c(SCCO)sc(-c3ccccn3)c2C1 system_name="GABA-A receptor; alpha-1/beta-3/gamma-2 (Homo sapiens, UniProt P14867+P18507+P28472)" label=TRUE
test_smiles=CSc1sc(-c2ccccn2)c2c1C(=O)CC(C)(C)C2 system_name="GABA-A receptor; alpha-1/beta-3/gamma-2 (Homo sapiens, UniProt P14867+P18507+P28472)" label=FALSE
test_smiles=CC(C)Sc1sc(-c2cc[nH]n2)c2c1C(=O)CC(C)(C)C2 system_name="GABA-A receptor; alpha-1/beta-3/gamma-2 (Homo sapiens, UniProt P14867+P18507+P28472)" label=TRUE
test_smiles=CC1(C)CC(=O)c2c(SCCO)sc(-c3cc[nH]n3)c2C1 system_name="GABA-A receptor; alpha-1/beta-3/gamma-2 (Homo sapiens, UniProt P14867+P18507+P28472)" label=TRUE
test_smiles=CCc1c(C(=O)OC)ncc2[nH]c3cc(OC)c(OC)cc3c12 system_name="GABA-A receptor; alpha-1/beta-3/gamma-2 (Homo sapiens, UniProt P14867+P18507+P28472)" label=TRUE
test_smiles=CC1(C)CC(=O)c2c(SSc3nccs3)sc(-c3cc[nH]n3)c2C1 system_name="GABA-A receptor; alpha-1/beta-3/gamma-2 (Homo sapiens, UniProt P14867+P18507+P28472)" label=TRUE
test_smiles=CCSc1sc(-c2cc[nH]n2)c2c1C(=O)CC(C)(C)C2 system_name="GABA-A receptor; alpha-1/beta-3/gamma-2 (Homo sapiens, UniProt P14867+P18507+P28472)" label=TRUE
test_smiles=CSc1sc(-c2cc[nH]n2)c2c1C(=O)CC(C)(C)C2 system_name="GABA-A receptor; alpha-1/beta-3/gamma-2 (Homo sapiens, UniProt P14867+P18507+P28472)" label=FALSE
test_smiles=CC1(C)CC(=O)c2c(SCCO)sc(-c3nccs3)c2C1 system_name="GABA-A receptor; alpha-1/beta-3/gamma-2 (Homo sapiens, UniProt P14867+P18507+P28472)" label=TRUE
test_smiles=CSc1sc(-c2cccnc2)c2c1C(=O)CC(C)(C)C2 system_name="GABA-A receptor; alpha-1/beta-3/gamma-2 (Homo sapiens, UniProt P14867+P18507+P28472)" label=FALSE
test_smiles=CSc1sc(-c2nccs2)c2c1C(=O)CC(C)(C)C2 system_name="GABA-A receptor; alpha-1/beta-3/gamma-2 (Homo sapiens, UniProt P14867+P18507+P28472)" label=FALSE
test_smiles=CSc1sc(-c2ccncc2)c2c1C(=O)CC(C)(C)C2 system_name="GABA-A receptor; alpha-1/beta-3/gamma-2 (Homo sapiens, UniProt P14867+P18507+P28472)" label=FALSE
